Test: growth suppression of beta-catenin knockout HCT116, pilot screen, human colon tumor cells (AID 823);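 also: 0% = wells killed by 20 µM Hyamine and 100% = untreated DMSO cell wells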
Settings: CellTiter-Glo, 60 h, at 10 µM, hits give low values
Inconclusive results are not listed.
Attribute: viability
Hi! Could you send only the number? It should be in %, unit omitted.

Looking for the measured viability of COc1ccc(N2CSC3=C(C#N)C(c4ccc(OC)c(OC)c4)CC(=O)N3C2)c(OC)c1 (centres undefined) , can you help?
79.5

Any idea what viability was measured for "Cc1cc(C)c(S(=O)(=O)Nc2ccc(O)cc2)c(C)c1" ?
91.6

Give the measured viability of "COc1ccc(CNC(=O)c2cnn3c(C(F)F)cc(C)nc23)cc1OC" .
92.3

Recorded viability for Cc1c(N2C(=O)CSC23C(=O)Nc2ccccc23)c(=O)n(-c2ccccc2)n1C (centres undefined) , please?
90.4

Bench note: what viability did "O=C(c1ccccc1)c1ccc2nc(N3CCN(C(=O)c4ccco4)CC3)c3nncn3c2c1" show?
65.3

I'd like to know its viability. The compound in question is COC(=O)c1ccc2c(c1)NC(=O)C1CCCN21 (centres undefined)
91.2

Which viability value is on record for "NS(=O)(=O)c1ccc(CNC(=O)NC2(c3ccccc3)CC2)cc1" ?
102
